Tested on: follistatin
Assay: Follistatin mRNA expression in HepG2 cells
Format: cell-based, human
Settings: HepG2 cells, Experiment 1, basal (no insulin), four hours; UTC = 100
In the oligonucleotide strings, read from the 5' end, every base follows the letter of its sugar. An asterisk marks phosphorothioate; unmarked linkages are phosphodiester. Other units and linkages are bracketed, terminal groups are in braces. A string of capitals states the bases alone. e = 2'-O-(2-methoxyethyl) (MOE); [5mC] = 5-methylcytosine
Label scheme for Follistatin mRNA: lower than 100 is False, 100 and above is True.

* 341808 (antisense GAACUGCCUUUCUCUCCA; all 2'-MOE, all phosphorothioate, methylation of C and T or U not given here) [compound 341808] | False
* 327965 (antisense eA*eT*e[5mC]*eA*e[5mC]*eA*eT*eA*eG*eG*eA*eA*eT*eA*eA*eA*eA*eA*eG*e[5mC]*e[5mC]*eA*eT*eA) [compound 327965] | False
* 341802 (antisense AGCUGCUUUUGGGAUUCCGUUG; all 2'-MOE, all phosphorothioate, methylation of C and T or U not given here) [compound 341802] | True
* 327886 (antisense e[5mC]*eG*e[5mC]*eG*eT*eA*e[5mC]*e[5mC]*eA*eA*eA*eA*eG*eT*eA*eA*eT*eA*eA*eT*eG) [compound 327886] | False
* 341800 (antisense AAGCCCAAAAGGAGAAUUCUUUG; all 2'-MOE, all phosphorothioate, methylation of C and T or U not given here) [compound 341800] | True
* 327887 (antisense eG*e[5mC]*eG*eA*e[5mC]*e[5mC]*eA*eT*eG*eG*e[5mC]*eT*eG*eT*eA*eG*eA*e[5mC]*eT*eG*eT*eT*eA) [compound 327887] | True

Every entry's value here was drawn from patent US8178506B2.
